- Tested on: HCT-15 colon
- TEST METHOD NOTES: NCI-60 one-dose screen, 48 h
- ASSAY SETUP: 10 µM unless noted
Compounds without any hit were thinned out: in the full panel of roughly 83,000, 20% have a hit. Calls of active or inactive are those of the source. Rule for the calls: active = growth percent below 10; inactive = the rest.
Classes used: 1 = active, 0 = inactive

MOLECULE: Brc1cccc(-c2cc(-c3ccc4c(c3)OCCCO4)[nH]n2)c1
DISCRETE LABEL: 0
--
MOLECULE: CC1CN(c2oc(-c3ccccc3)nc2C#N)CC(C)O1 (stereo not given)
DISCRETE LABEL: 0
--
MOLECULE: Cc1ccc(S(=O)(=O)n2cc(C(=O)C(=O)N3CCOCC3)c3ccccc32)cc1
DISCRETE LABEL: 0
--
MOLECULE: COc1ccc(-c2nc(/C=N/Nc3cc(C)nc4ccc(Cl)cc34)c(C)o2)cc1
DISCRETE LABEL: 1
--
MOLECULE: NC(N)=N/N=C/c1ccc(-c2ccc(-c3cc(Cl)cc(Cl)c3)s2)cc1
DISCRETE LABEL: 1
--
MOLECULE: Cc1ccc2nc(-c3cc4c([nH]c5ccccc54)c(-c4ccc(F)c(F)c4)n3)[nH]c2c1
DISCRETE LABEL: 0
--
MOLECULE: Cc1ccc2ccccc2c1C[n+]1ccccc1
DISCRETE LABEL: 0
--
MOLECULE: COc1ccc(N2CCN(Cc3cc(C(=O)/C=C/c4c[nH]c5ccccc45)ccc3O)CC2)cc1
DISCRETE LABEL: 0
--
MOLECULE: COc1cc(/C=C/C(=O)c2cccc(-n3cc(-c4cc(OC)c(OC)c(OC)c4)[nH]c3=O)c2)cc(OC)c1OC
DISCRETE LABEL: 1
--
MOLECULE: Fc1ccc(Nc2nc(NCCNc3ccnc4cc(Cl)ccc34)nc(N3CCOCC3)n2)cc1
DISCRETE LABEL: 0
--
MOLECULE: NC(=S)N/N=C1\CCCC(C(F)(F)F)C1 (stereo not given)
DISCRETE LABEL: 0
--
MOLECULE: COc1cc(Nc2ncccc2C(=O)NCc2cn(Cc3cccc(Oc4ccccc4)c3)nn2)cc(OC)c1
DISCRETE LABEL: 0
--
MOLECULE: CCCCNC(=O)Oc1ccc(/C(=C(\C)c2ccccc2)c2ccc(OCCN(CC)CC)cc2)cc1
DISCRETE LABEL: 0
--
MOLECULE: Cc1ccc(-c2cc3nc(C(Cl)Cl)nc(-c4cccnc4)n3n2)cc1
DISCRETE LABEL: 1
--
MOLECULE: COc1ccc(C(=O)c2cc(OC)c3c(c2)OCO3)cc1O
DISCRETE LABEL: 0
--
MOLECULE: OB(O)c1cccc(-c2nc3ccc4[nH]ncc4c3c3c2CCCC3)c1F
DISCRETE LABEL: 0
--
MOLECULE: Cc1ccc(S(=O)(=O)NCCNc2nccc(-c3c(-c4ccc(O)cc4)nc4sccn34)n2)cc1
DISCRETE LABEL: 0
--
MOLECULE: COc1ccc(Nc2ncccc2C(=O)NCc2cn(Cc3cccc(Oc4ccccc4)c3)nn2)cc1
DISCRETE LABEL: 0
--
MOLECULE: COc1cc(/C=C/C(=O)c2c(C)nc3ccccc3c2C)ccc1OCCCCOc1cc2c(cc1OC)C(=O)N1CCC[C@H]1C=N2
DISCRETE LABEL: 1
--
MOLECULE: O=C(O)c1cn(C2CC2)c2cc(N3CCN(C(=O)/C=C/c4ccc(Cl)cc4)CC3)c(F)cc2c1=O
DISCRETE LABEL: 0

Entry source: PubChem BioAssay (NCI)
